Catalogue of Percent Effect values
# TGT: Arginase-2, mitochondrial (Homo sapiens) (UniProt P78540)
# Sequence (whole entry): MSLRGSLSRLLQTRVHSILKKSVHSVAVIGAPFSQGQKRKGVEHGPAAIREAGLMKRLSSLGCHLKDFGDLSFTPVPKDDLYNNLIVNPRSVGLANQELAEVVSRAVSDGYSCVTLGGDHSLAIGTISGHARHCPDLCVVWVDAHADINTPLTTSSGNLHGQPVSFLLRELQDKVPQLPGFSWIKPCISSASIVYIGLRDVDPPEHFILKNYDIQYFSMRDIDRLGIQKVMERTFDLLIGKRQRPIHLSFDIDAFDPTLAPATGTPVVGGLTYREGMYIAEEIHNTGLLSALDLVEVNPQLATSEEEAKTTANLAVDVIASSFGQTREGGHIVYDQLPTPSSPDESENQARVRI
# METHOD: in vitro enzyme assay to detect the production of urea directly proportional to the activity of Arginase II; note: in the data most compounds retested in dose-response had high values
# Assay type: functional
# Parameters: scale not given: direction of the effect not stated beside the values
# ASSAY_CONTEXT: 33.3 µM

Here is how some molecules turned out for Percent Effect.
Cc1ccc([C@@H]2CN(S(=O)(=O)C(C)C)C[C@H]2N(C)C)cc1    4.22%
CC(c1ccco1)N(C)Cc1nc2c(cnn2C)c(=O)[nH]1 (configuration not stated)    2.77%

Entry COCC(=O)NC1CC2(CCN(Cc3ccco3)CC2)c2ccccc21 (configuration not stated) : reported Percent Effect = ?
2.23%

Any idea what Percent Effect was measured for CNS(=O)(=O)c1ccc(CNC(=O)NCC2CCCO2)cc1 (configuration not stated) ?
-2.74%

Param item = CN(CC(=O)N1CCCC1Cn1cccn1)C1CC1 (configuration not stated) ; retrieve measured Percent Effect.
0%

Any idea what Percent Effect was measured for Cn1ccnc1SCc1nc(C(C)(C)NC(=O)OC(C)(C)C)no1 ?
2.08%

Field request: Percent Effect | item: Cc1cnn(C2CCCN(C(=O)c3ccc(N(C)C)nn3)C2)c1 (configuration not stated)
-2.85%

Item c1coc(CN2CCCC3(COCCN(Cc4c[nH]nn4)C3)C2)c1 (configuration not stated) has what recorded Percent Effect?
-23.1%

State the recorded Percent Effect for this entry: Fc1ccc2c(c1)C(NCc1nnc3n1CCCCC3)CCCO2 (configuration not stated)
23.1%

Look up Percent Effect: CC(C)NC(=O)c1ccc2c(c1)nc1n2CCN(c2ccccc2)C1
-9.68%

Quick one: Percent Effect for CC(CNC(=O)Nc1cn[nH]c1)N1CCc2ccccc2C1 (configuration not stated) ?
0.632%

Entry COc1cccc(S(=O)(=O)NC(=O)COC2CCCC2)c1 : reported Percent Effect = ?
2.85%

---

# TGT: Proteasome subunit beta (Trypanosoma cruzi)
# METHOD: Trypanosoma cruzi proteasome chymotrypsin-like activity (TcProtChymo) assay. Note: in the data most compounds retested in dose-response had high values.
# Format: functional
# Set-up: scale not given: direction of the effect not stated beside the values
# ASSAY_CONTEXT: 9.37 µM
OBSERVATION_TYPE: Percent Effect (%)
Unit % implied. Number only.

Before answering, review these 2 worked examples.
Cc1cn2c(n1)CCC(NC(=O)c1ccc(CS(C)(=O)=O)cc1)C2 (stereo unspecified)    4.68
CC(C)(CO)NC(=O)C1CCC(=O)N(Cc2ccc(Cl)cc2)C1 (stereo unspecified)    2.81

// below: Percent Effect requested for another compound
// returns reported Percent Effect for input CC(NC(=O)NCC1(N2CCCCC2)CCCCC1)c1nncn1C (stereo unspecified)
-0.931

---

# TGT: Sialic acid-binding Ig-like lectin 9 (Homo sapiens) (UniProt Q9Y336)
# Sequence (Q9Y336 whole entry): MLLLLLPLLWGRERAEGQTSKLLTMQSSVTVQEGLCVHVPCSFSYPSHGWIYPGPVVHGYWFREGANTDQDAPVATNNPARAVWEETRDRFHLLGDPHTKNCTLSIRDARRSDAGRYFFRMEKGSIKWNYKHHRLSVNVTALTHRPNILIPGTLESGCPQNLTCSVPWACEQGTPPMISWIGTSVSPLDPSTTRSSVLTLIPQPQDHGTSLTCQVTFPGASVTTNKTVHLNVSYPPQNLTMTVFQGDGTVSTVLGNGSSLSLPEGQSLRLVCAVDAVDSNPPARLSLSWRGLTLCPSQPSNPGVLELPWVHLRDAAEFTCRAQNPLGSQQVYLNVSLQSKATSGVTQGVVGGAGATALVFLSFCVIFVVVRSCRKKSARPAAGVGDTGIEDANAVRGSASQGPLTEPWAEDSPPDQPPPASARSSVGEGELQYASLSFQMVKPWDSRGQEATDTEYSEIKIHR
# METHOD: Hs-Siglec9 ALPHAscreen SOP 20170721
# Parameters: scale not given: direction of the effect not stated beside the values
# ASSAY_CONTEXT: 10 µM
OBSERVATION_TYPE: Percent Effect (%)
Express it in %; write the number only.

Consider the reported Percent Effect for these compounds:
COc1cccc(CNCc2c(C(C)C)nn(C)c2N(C)C)c1OC    -1.37
Cc1cnn(C2CCCN(C(=O)Cc3cn4ccccc4n3)C2)c1 (centres undefined)    -0.453
c1cn(Cc2nnc(C3CCN(c4nccs4)CC3)n2C2CC2)cn1    19.9
Cc1cc(F)ccc1CNCCn1cccn1    0.503
COc1cccc2c1OCC(NC(=O)NCc1cccs1)C2 (centres undefined)    9.16
CN(CC(=O)N1CCCC1Cn1cccn1)C1CC1 (centres undefined)    13.2
CC(C)C(Sc1nnnn1-c1ccccc1)C(=O)NCc1cccnc1 (centres undefined)    -5.13
CC(NC(=O)NCCCn1cncn1)c1ccc2c(c1)OCCO2 (centres undefined)    0.133
CNc1cncc(C2CCCN2C(=O)c2ccc3oc(=O)n(C)c3c2)n1 (centres undefined)    -7.77
O=C(CN1CC(n2cccn2)C1)NCCc1c[nH]c2ccccc12    3.66

So what's the measured Percent Effect for this one? COCC(=O)NCc1cc(=O)n2c(n1)CN(Cc1ccsc1)CCC2
-0.625

# get_value(readout='Percent Effect', item= O=C(c1cccc(S(=O)(=O)NCCCc2ncc[nH]2)c1)N1CCOCC1 )
-4.52

---

# TGT: Sialic acid-binding Ig-like lectin 9 (Homo sapiens)
# METHOD: Hs-Siglec9 ALPHAscreen SOP 20170721
# Set-up: scale not given: direction of the effect not stated beside the values
# ASSAY_CONTEXT: 10 µM
OBSERVATION_TYPE: Percent Effect
Answer with the figure and its unit, nothing else.

Guide cases for Percent Effect, answers given:
CN1CCN(c2nc(O)c3c(-c4ccccn4)ccnc3n2)CC1    2.2%
Cc1n[nH]c(C)c1C1COCCN1C(=O)Cc1cccc(F)c1 (stereo unspecified)    0.561%
Cc1cnn(CC2CN(Cc3cccc(OCC(N)=O)c3)CCO2)c1 (stereo unspecified)    4.26%
CC(=O)c1c(F)cccc1N1CCC(Cc2cccnc2)CC1    3.69%
Cc1nc(CN2CC3(CCN(c4ncc(F)cn4)C3)CC2=O)cs1 (stereo unspecified)    6.6%

In the following, a different compound is considered.
Can you share its Percent Effect? I mean this compound: CN(C)C(=O)Cc1nc(CN2CCn3c(nnc3C3CC3)C2)cs1
3.53%

---

# TGT: Protein translocase subunit SecA (Escherichia coli (strain K12)) (UniProt P10408)
# Sequence (P10408 whole entry): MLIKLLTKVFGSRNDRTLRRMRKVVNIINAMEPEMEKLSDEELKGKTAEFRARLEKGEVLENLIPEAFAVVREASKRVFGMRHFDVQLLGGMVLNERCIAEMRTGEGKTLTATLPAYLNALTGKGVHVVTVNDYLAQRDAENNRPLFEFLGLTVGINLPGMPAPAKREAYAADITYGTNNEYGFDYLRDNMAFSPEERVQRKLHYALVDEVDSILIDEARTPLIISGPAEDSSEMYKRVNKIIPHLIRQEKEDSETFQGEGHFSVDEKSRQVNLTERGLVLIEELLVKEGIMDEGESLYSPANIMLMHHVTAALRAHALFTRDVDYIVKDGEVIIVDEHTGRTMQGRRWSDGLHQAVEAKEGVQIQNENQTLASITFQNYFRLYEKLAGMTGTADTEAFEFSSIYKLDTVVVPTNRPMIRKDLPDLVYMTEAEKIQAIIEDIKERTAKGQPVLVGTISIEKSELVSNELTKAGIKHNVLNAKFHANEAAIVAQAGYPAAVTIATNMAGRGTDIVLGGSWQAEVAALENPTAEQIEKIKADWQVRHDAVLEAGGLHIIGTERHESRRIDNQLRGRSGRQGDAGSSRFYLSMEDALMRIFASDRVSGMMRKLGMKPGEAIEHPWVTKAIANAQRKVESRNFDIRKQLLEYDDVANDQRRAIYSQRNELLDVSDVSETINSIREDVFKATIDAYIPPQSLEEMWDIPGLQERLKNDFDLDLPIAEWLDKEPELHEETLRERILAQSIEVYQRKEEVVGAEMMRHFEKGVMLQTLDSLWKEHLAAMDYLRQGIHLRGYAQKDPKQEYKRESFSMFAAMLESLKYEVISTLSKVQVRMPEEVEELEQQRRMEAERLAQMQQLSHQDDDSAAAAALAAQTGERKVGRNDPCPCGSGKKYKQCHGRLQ
# METHOD: Assay to Identify E. coli SecA ATPase Inhibitors
# Format: functional
# Design: scale not given: direction of the effect not stated beside the values
# ASSAY_CONTEXT: 30 µM
Results with a measured potency or affinity are listed apart.
OBSERVATION_TYPE: Percent Effect (%)
Give just the number in %; leave the unit off.

Worked examples follow.
O=C(Cc1ccc2c(c1)OCO2)N1CCCN(c2ccccc2)CC1    -6.04
O=C1CC2(CCN(CC3CCOC3)CC2)CN1Cc1cc(F)cc(F)c1 (configuration not stated)    -5.41
O=C(c1ccncc1)N1CCCn2c(CN3CCCCC3)nnc2C1    -3.23
CN1C(=O)CC(C(=O)O)C12CCN(Cc1ccc(Cl)cc1F)CC2 (configuration not stated)    -2.86
Cc1ccccc1CN1CCC(NCC2CNc3ccnn3C2)CC1 (configuration not stated)    -0.777
Cn1ccnc1CN1CCN(c2ccc(C#N)cn2)CC1    -0.525
Cc1[nH]ccc1C(=O)Nc1cccc(CN2CCC(O)CC2)c1    0.333
COc1cc(C)nc(N2CCN(C(=O)CCc3cscn3)CC2)n1    1.16

Value lookup for Percent Effect; key = Clc1ccc(OCCN2CCN(CCn3cncn3)CC2)cc1
-0.515

Percent Effect for CCNC(=O)c1ccoc1CN1c2ccccc2CC1C (configuration not stated) ?
-3.54

What value of Percent Effect has been recorded for this entry: Cc1cn(-c2ccccc2)nc1NS(=O)(=O)c1cc(C(=O)O)cs1
-9.57

Data request, read-out Percent Effect, for CCc1c(C)nc2n(c1=O)CC(C(=O)Nc1nc3c(s1)CCCC3)CS2 (configuration not stated)
-2.52

---

# Species: Homo sapiens
# METHOD: To identify inhibition of the IFN signalling (Jak-Stat) pathway via expression of an eGFP reporter gene under the control of an IFN-stimulated response element (ISRE) containing MxA promoter.
# Assay type: functional
# Set-up: scale not given: direction of the effect not stated beside the values
# ASSAY_CONTEXT: 30 µM
Here the recorded Percent Effect is given for each entry.
Answer with a number only, understood to be in %.

Known Percent Effect results, listed for orientation:
NC[C@H]1CC[C@H](C(NC(=O)c2cccc(F)c2)c2ccccn2)CC1 (some centres undefined)    8.62
CC(C)NC(=O)[C@@H]1C[C@H](N)CN1C(=O)c1cc2c([nH]c1=O)CCCC2    3.48
Cc1cc(C)c(CNC(=O)NCCOc2ccc3c(c2)CCC3)c(=O)[nH]1    3.96
O=C(NS(=O)(=O)c1ccccc1Cl)c1cccc2c1OCCO2    7.24
CS(=O)(=O)N1CCc2c(cccc2NC(=O)CC(F)(F)F)C1    -9.3
CC(C)(CO)NC(=O)C1CCC(=O)N(Cc2ccc(Cl)cc2)C1 (centres undefined)    -9.87

// Percent Effect lookup, key: CC(CN1CCOCC1)NC(=O)N(C)Cc1ccc(Cl)s1 (centres undefined)
3.75

Return reported Percent Effect; argument: O=C(c1cccnc1)N1CC[C@H](OCC2CC2)[C@@H]1Cc1cccnc1
-15.6

What does the data say about its Percent Effect? Entry: CC(=O)N1CCN(Cn2nc(-c3ccc(F)cc3)oc2=O)CC1
15
